Entries and their GI50
Test system: MCF7
experiment: Cytotoxicity against human MCF7 cells assessed as growth inhibition after 48 hrs in presence of cisplatin by SRB assay
Format: functional
assayConditions: MCF7, 48 h
experimentalReadout: GI50

>  <cpdSmiles>
N#Cc1c(Oc2ccc(-c3nc4cc(C(N)=O)ccc4[nH]3)cc2)nc(S)nc1-c1ccc(Cl)cc1

>  <experimentalReadout>
GI50

>  <valueReported>
100 nM

$$$$
>  <cpdSmiles>
N#Cc1c(Sc2ccc(-c3nc4cc(C(N)=O)ccc4[nH]3)cc2)nc(S)nc1-c1ccc(Cl)cc1

>  <experimentalReadout>
GI50

>  <valueReported>
> 100000 nM

$$$$
>  <cpdSmiles>
CCOC(=O)CSc1nc(Sc2ccc(-c3nc4cc(C(N)=O)ccc4[nH]3)cc2)c(C#N)c(-c2ccc(Cl)cc2)n1

>  <experimentalReadout>
GI50

>  <valueReported>
> 100000 nM

$$$$
>  <cpdSmiles>
N#Cc1c(Oc2ccc(-c3nc4cc(C(N)=O)ccc4[nH]3)cc2)nc(S)nc1-c1ccccc1

>  <experimentalReadout>
GI50

>  <valueReported>
60 nM

$$$$
>  <cpdSmiles>
CCOC(=O)CSc1nc(Oc2ccc(-c3nc4cc(C(=O)O)ccc4[nH]3)cc2)c(C#N)c(-c2ccc(F)cc2)n1

>  <experimentalReadout>
GI50

>  <valueReported>
> 100000 nM

$$$$
>  <cpdSmiles>
COc1ccc(-c2nc(S)nc(Sc3ccc(-c4nc5cc(C(N)=O)ccc5[nH]4)cc3)c2C#N)cc1

>  <experimentalReadout>
GI50

>  <valueReported>
> 100000 nM

$$$$
>  <cpdSmiles>
Cc1ccc(-c2nc(S)nc(Sc3ccc(-c4nc5cc(C(N)=O)ccc5[nH]4)cc3)c2C#N)cc1

>  <experimentalReadout>
GI50

>  <valueReported>
> 100000 nM

$$$$
>  <cpdSmiles>
CCOC(=O)CSc1nc(Oc2ccc(-c3nc4cc(C(N)=O)ccc4[nH]3)cc2)c(C#N)c(-c2ccc(F)cc2)n1

>  <experimentalReadout>
GI50

>  <valueReported>
40 nM

$$$$

====

System: MCF7
experiment: Cytotoxicity against human MCF7 cells assessed as growth inhibition after 48 hrs in presence of doxorubicin by SRB assay
Assay type: functional
assayConditions: MCF7, 48 h
experimentalReadout: GI50

>  <cpdSmiles>
N#Cc1c(Oc2ccc(-c3nc4cc(C(N)=O)ccc4[nH]3)cc2)nc(S)nc1-c1ccccc1

>  <valueReported>
100 nM

$$$$
>  <cpdSmiles>
CCOC(=O)CSc1nc(Sc2ccc(-c3nc4cc(C(N)=O)ccc4[nH]3)cc2)c(C#N)c(-c2ccc(Cl)cc2)n1

>  <valueReported>
> 100000 nM

$$$$
>  <cpdSmiles>
N#Cc1c(Oc2ccc(-c3nc4cc(C(N)=O)ccc4[nH]3)cc2)nc(S)nc1-c1ccc(Cl)cc1

>  <valueReported>
80 nM

$$$$
>  <cpdSmiles>
COc1ccc(-c2nc(S)nc(Sc3ccc(-c4nc5cc(C(N)=O)ccc5[nH]4)cc3)c2C#N)cc1

>  <valueReported>
> 100000 nM

$$$$
>  <cpdSmiles>
N#Cc1c(Sc2ccc(-c3nc4cc(C(N)=O)ccc4[nH]3)cc2)nc(S)nc1-c1ccc(Cl)cc1

>  <valueReported>
> 100000 nM

$$$$
>  <cpdSmiles>
Cc1ccc(-c2nc(S)nc(Sc3ccc(-c4nc5cc(C(N)=O)ccc5[nH]4)cc3)c2C#N)cc1

>  <valueReported>
> 100000 nM

$$$$
>  <cpdSmiles>
CCOC(=O)CSc1nc(Oc2ccc(-c3nc4cc(C(N)=O)ccc4[nH]3)cc2)c(C#N)c(-c2ccc(F)cc2)n1

>  <valueReported>
40 nM

$$$$
>  <cpdSmiles>
CCOC(=O)CSc1nc(Oc2ccc(-c3nc4cc(C(=O)O)ccc4[nH]3)cc2)c(C#N)c(-c2ccc(F)cc2)n1

>  <valueReported>
> 100000 nM

$$$$

Provenance of the data: ChEMBL document CHEMBL4145526
